# ASSAYED TARGET: hGGPTase-I (Homo sapiens, UniProt P49354+P53609)
# PROTOCOL SUMMARY: In vitro inhibition of recombinant human geranylgeranyl protein transferase type I (transferase assay)
# EXPERIMENTAL PARAMETERS: 500 nM Ras-CAIL, 100 nM geranylgeranyl diphosphate, 30 °C

{"columns": ["ENTRY SMILES", "ASSAYED TARGET", "IC50 / nM"],
 "data": [
  ["CC[C@H](C)[C@H](NC(=O)[C@@H](NC[C@@H](N)CS)C(C)C)C(=O)N[C@@H](CC(C)C)C(=O)O", "hGGPTase-I (Homo sapiens, UniProt P49354+P53609)", 23]
]}

---

Catalogue of pIC50 readings, one per entry.
# ASSAYED TARGET: FPTase (Homo sapiens, UniProt P49354+P49356)
# PROTOCOL SUMMARY: In vitro inhibition of recombinant farnesyl-protein transferase (transferase assay)
# EXPERIMENTAL PARAMETERS: 650 nM Ras-CVLS, 100 nM farnesyl diphosphate, 30 °C
# Protocol: Molecular biological manipulations. To construct the C-terminus CAAX box routants, pUC-[L68]RAS1(term.) was digested with the restriction enzymes HincII and NarI to create a vector into which oligonucleotides containing new C-terminal sequences could be ligated. […] Transferase Assays. […] Filters were washed four times with 2 mL aliquots of 100% ethanol, mixed with scintillation fluid (10 mL) and then counted in a Beckman LS3801 scintillation counter. […]
pIC50: −log10 of the molar value.

{"columns": ["ENTRY SMILES", "pIC50"],
 "data": [
  ["CC[C@H](C)[C@@H](CO[C@H](C(=O)N[C@@H](CC(C)C)C(=O)O)C(C)C)NC[C@@H](N)CS", 6.35],
  ["CC[C@H](C)[C@H](NC(=O)[C@@H](NC[C@@H](N)CS)C(C)C)C(=O)N[C@@H](CC(C)C)C(=O)O", 6.10],
  ["CC(C)C[C@H](NC(=O)[C@@H](/C=C/[C@@H](NC[C@@H](N)CS)C(C)C)C(C)C)C(=O)O", 7.15]
]}

---

The following molecules are listed with their measured pIC50 values.
# ASSAYED TARGET: bGGPTase-I (Bos taurus, UniProt P29702+Q5EAD5)
# Construct: Cerebral lobes from bovine brains were homogenized in lysis buffer
# PROTOCOL SUMMARY: In vitro inhibition of geranylgeranyl protein transferase type I purified from bovine brain (transferase assay)
# EXPERIMENTAL PARAMETERS: 500 nM Ras-CAIL, 100 nM geranylgeranyl diphosphate, 30 °C
pIC50: −log10 of the molar value.

{"columns": ["ENTRY SMILES", "pIC50"],
 "data": [
  ["CC[C@H](C)[C@H](NC(=O)[C@@H](NC[C@@H](N)CS)C(C)C)C(=O)N[C@@H](CC(C)C)C(=O)O", 8.72],
  ["CC[C@H](C)[C@@H](CO[C@H](C(=O)N[C@@H](CC(C)C)C(=O)O)C(C)C)NC[C@@H](N)CS", 7.43],
  ["CC(C)C[C@H](NC(=O)[C@@H](/C=C/[C@@H](NC[C@@H](N)CS)C(C)C)C(C)C)C(=O)O", 7.68]
]}

Where these numbers come from: patent US5470832A
